molecular target: T1, DR5-IgG (human, UniProt O14763 56-184); test: AlphaQuest (CARB-AQ) displacement of biotinylated Apo2L/TRAIL from receptor-IgG; against Flag-Apo2L.WT
T1 construct: also called Apo-2-IgG; not shown: IgG part; prepared as in WO98/51793, not described here
T1 sequence (O14763 56-184): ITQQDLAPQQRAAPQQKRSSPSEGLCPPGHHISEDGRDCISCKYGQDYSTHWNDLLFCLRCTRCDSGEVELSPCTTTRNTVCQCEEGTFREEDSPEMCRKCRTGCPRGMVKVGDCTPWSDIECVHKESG
metric: IC50 ratio (mutant/wt) (ratio)
Provide only the numeric value, understood in ratio.

In: Look at this binder and give its reported IC50 ratio (mutant/wt). Flag.Apo2L.DR5-2 (ligand, not shown: N-terminal flag tag from pFLAG-MAC) VRERGPQRVAAHITGTRGRSNTLSSPNSKNEKALGRKINSWESSRSGHSFLSNLHLRNGELVIHEKGFYYIYSQTAFKFKEEIKENTKNDKQMVQYIYKYTSYPDPILLMKSARNSCWSKDAEYGLYSIYQGGIFELKENDRIFVSVTNEHLIDMDHEASFFGAFLVG
Out: 2.8

In: Look at this binder and give its reported IC50 ratio (mutant/wt). Flag.Apo2L.DR5-1 (ligand, not shown: N-terminal flag tag from pFLAG-MAC) VRERGPQRVAAHITGTRGRSNTLSSPNSKNEKALGRKINSWESSRSGHSFLSNLHLRNGELVIHEKGFYYIYSQTAFKFKEEIKENTKNDKQMVQYIYKYTSYPDPILLMKSARNSCWSKDAEYGLYSIYQGGIFELKENDRIFVSVTNEALIDMDHEASFFGAFLVG
Out: 2.4

In: Look at this binder and give its reported IC50 ratio (mutant/wt). Flag.Apo2L.DR5-21 (ligand, not shown: N-terminal flag tag from pFLAG-MAC) VRERGPQRVAAHITGTRGRSNTLSSPNSKNEKALGRKINSWESSRSGHSFLSNLHLRNGELVIHEKGFYYIYSQTAFKFKEEIKENTKNDKQMVQYIYKYTSYPDPILLMKSARNSCWSKDAEYGLYSIYQGGIFELKENDRIFVSVTNEDLLNMEHEASFFGAFLVG
Out: 1.9

In: Look at this binder and give its reported IC50 ratio (mutant/wt). Flag.Apo2L.DR5-8 (ligand, also called Flag-Apo21.DR5-8; not shown: N-terminal flag tag from pFLAG-MAC) VRERGPQRVAAHITGTRGRSNTLSSPNSKNEKALGRKINSWESSRSGHSFLSNLHLRNGELVIHEKGFYYIYSQTQFKFREEIKENTKNDKQMVQYIYKYTSYPDPILLMKSARNSCWSKDAEYGLYSIYQGGIFELKENDRIFVSVTNERLLQMDHEASFFGAFLVG
Out: 0.7

In: Look at this binder and give its reported IC50 ratio (mutant/wt). Flag.Apo2L.DR5-23 (ligand, not shown: N-terminal flag tag from pFLAG-MAC) VRERGPQRVAAHITGTRGRSNTLSSPNSKNEKALGRKINSWESSRSGHSFLSNLHLRNGELVIHEKGFYYIYSQTAFKFREEIKENTKNDKQMVQYIYKYTSYPDPILLMKSARNSCWSKDAEYGLYSIYQGGIFELKENDRIFVSVTNESLLDMEHEASFFGAFLVG
Out: 2.3
